pKi: −log10 of the molar value. Counter-ions that a name gives are not always drawn.
Recorded pKi values (D(1A) dopamine receptor (Homo sapiens, UniProt P21728)) are given below.
MEASURE_NAME: pKi

[[record]]
molecule = "CN1CCCC(n2nc(Cc3ccc(Cl)cc3)c3ccccc3c2=O)CC1 (centres undefined) [AZELASTINE HYDROCHLORIDE]"
measurement = 6.24

[[record]]
molecule = "CN1CCC(=C2c3ccccc3CC(=O)c3sccc32)CC1 [KETOTIFEN FUMARATE]"
measurement = 6.52

[[record]]
molecule = "Cc1nc(-c2ccc(-c3ccc(C(=O)N4CCc5cc6c(cc54)C4(CCN(C)CC4)CO6)cc3)c(C)c2)no1"
measurement = 6.43

[[record]]
molecule = "CN1CCN(c2ccc(Nc3c4ccccc4nc4ccccc34)cc2)CC1"
measurement = 5.34

